# Format: in vivo, human
# condition-notes: both, human, plasma, po, 10 mg
observed-property: Cmax (ng/mL)
A number alone suffices; assume ng/mL.

Prompt: Name the recorded Cmax for "COc1ccc(-n2nc(C(N)=O)c3c2C(=O)N(c2ccc(N4CCCCC4=O)cc2)CC3)cc1" .
Completion: 230

* * *

# Assay type: in vivo, human
# condition-notes: both, human, plasma, po, 10 mg
observed-property: AUC(0-inf) (ng·h/mL)
Lab book: enter the figure in ng·h/mL, no units written.

Prompt: Requested field: AUC(0-inf). Item: "COc1ccc(-n2nc(C(N)=O)c3c2C(=O)N(c2ccc(N4CCCCC4=O)cc2)CC3)cc1"
Completion: 2220

* * *

# Type: in vivo, human
# condition-notes: both, human, plasma, po, 10 mg
observed-property: half-life (h)
Provide only the numeric value, understood in h.

Prompt: Data request, read-out half-life, for "COc1ccc(-n2nc(C(N)=O)c3c2C(=O)N(c2ccc(N4CCCCC4=O)cc2)CC3)cc1"
Completion: 9.2
